Tested on: P-glycoprotein
Assay Method Text: P-glycoprotein-induction assay (rhodamine123 cell exclusion method) in LS-180 cells
Assay Setup: compounds at 5 μM (table footnote); 48 h; control = 100; decrease indicates Pgp induction
Endpoint Name: % Rh123 accumulation in LS-180 cells after 48 h (%)
Could you give me the number in %? Just the number is fine.

## Input Reported % Rh123 accumulation in LS-180 cells after 48 h, molecule O=C1c2cc(F)c(Cl)cc2-[n+]2ccc3c([nH]c4ccccc43)c21 : ____
## Output 55.5

## Input Same again, this time with O=C1c2ccc(Cl)cc2-[n+]2ccc3c([nH]c4ccccc43)c21
## Output 57.1

## Input Again, but for Cn1c2ccccc2c2cc[n+](C)c(C(=O)c3ccccc3Br)c21
## Output 70.1

## Input Quick one: O=C1c2cc(F)c(F)cc2-[n+]2ccc3c([nH]c4ccccc43)c21
## Output 49.6

## Input What do you get for Cn1c2ccccc2c2cc[n+](C)c(C(=O)c3ccccc3F)c21 ?
## Output 79.0

## Input Could you do the same for Cn1c2ccccc2c2cc[n+](C)c(C(=O)c3c[nH]c4ccccc34)c21 , please?
## Output 77.6

## Input Again, but for Cn1c2ccccc2c2cc[n+](C)c(C(=O)c3ccccc3Cl)c21
## Output 71.4

## Input Another: O=C1c2cc(Cl)ccc2-[n+]2ccc3c([nH]c4ccccc43)c21
## Output 58.7

## Input Next molecule up: Cn1c2ccccc2c2cc[n+](C)c(C(=O)c3ccccc3)c21
## Output 75.2

## Input Ok, now O=C1c2ccc(Cl)c(Cl)c2-[n+]2ccc3c([nH]c4ccccc43)c21
## Output 57.8

## Input Follow-up entry: Cn1c2ccccc2c2cc[n+](C)c(C(=O)c3ccc(C(F)(F)F)cc3)c21
## Output 78.5
